So I've got a bunch of binders here, and I need their Ratio rCT/rAmylin binding values.
Tested Target: T1, rat calcitonin receptor (rat, UniProt P32214 25-516)
T1 construct: whole, on cells; membranes of transiently transfected BHK tk'ts 13 cells (Assay VIII); also called rCTR; rat calcitonin (a) receptor
T1 sequence (looked up): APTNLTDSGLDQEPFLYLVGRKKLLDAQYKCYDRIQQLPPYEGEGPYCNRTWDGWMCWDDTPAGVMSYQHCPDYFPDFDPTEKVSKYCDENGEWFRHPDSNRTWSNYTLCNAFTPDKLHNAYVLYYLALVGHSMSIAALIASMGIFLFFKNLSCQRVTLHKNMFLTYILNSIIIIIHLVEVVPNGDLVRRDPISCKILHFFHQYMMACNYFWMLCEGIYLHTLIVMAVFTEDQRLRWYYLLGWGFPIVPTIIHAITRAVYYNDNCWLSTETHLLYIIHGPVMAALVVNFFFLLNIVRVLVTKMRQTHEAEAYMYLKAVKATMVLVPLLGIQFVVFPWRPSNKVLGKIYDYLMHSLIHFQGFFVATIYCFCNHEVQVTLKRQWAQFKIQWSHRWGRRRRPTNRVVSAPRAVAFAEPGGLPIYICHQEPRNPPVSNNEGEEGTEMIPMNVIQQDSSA
Experimental Protocol: IC50 on rat calcitonin receptor divided by IC50 on rat amylin receptor (SPA competition)
Numbered stars: 1 amine (or outer) side, 2 acyl side, 3 side chain; on linkers, the order of the positions; unused ones are H or OH. Bridge positions count the residues as written; N and C are the ends. Side chains are listed from the residue outwards. Ends that are not written are not given here. * marks the point of attachment. C20 diacid = O=C(O)CCCCCCCCCCCCCCCCCCC(=O)*; γGlu = O=C(O)[C@H](CCC(=O)[*:2])N[*:1]; AEEA = NCCOCCOCC(=O)O

INSERT INTO measurements (binder, recorded_result) VALUES
  ('{C20 diacid-γGlu}-KCNTATCATQRLAEFLRHSSPNFGPILPPTNVGSNTY-NH2 (disulfide 2-7 (inferred), analogue of human amylin; also called compound 6)', 21.7),
  ('{C20 diacid-γGlu}-KCNTATCATQRLANFLRHSSPNFGAIPSSTPVGSETY-NH2 (disulfide 2-7 (inferred), analogue of human amylin; also called compound 28)', 44.9),
  ('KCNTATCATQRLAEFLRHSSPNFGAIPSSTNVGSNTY (C20 diacid-gGlu-2xOEG on the alpha amino group of the N-terminal residue (Lys 1); disulfide bridge between the two Cys residues; C-terminal amide, analogue of human amylin; also called compound 19)', 93.6);

Please give Ratio rCT/rAmylin binding for each item listed below.
1. K([AEEA-γGlu-C20 diacid])CNTATCATQRLANFLRHSSPNFGAIPSSTPVGSNTY-NH2 (disulfide 2-7 (inferred), analogue of human amylin; also called compound 49)
2. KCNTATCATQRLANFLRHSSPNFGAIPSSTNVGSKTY (C20 diacid-gGlu on the alpha amino group of the N-terminal residue (Lys 1); disulfide bridge between the two Cys residues; C-terminal amide, analogue of human amylin; also called compound 34) [N^α1-[(4S)-4-carboxy-4-(19-carboxynonadecanoylamino)butanoyl]-[Arg17,Pro21,Pro27,Lys35]-h-amylin]
3. {C20 diacid-γGlu}-KCNTATCATQRLAEFLRHSSPNFGAIPSSTNVGHNTY-NH2 (disulfide 2-7 (inferred), analogue of human amylin; also called compound 17)
4. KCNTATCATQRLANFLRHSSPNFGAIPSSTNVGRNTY (C20 diacid-gGlu on the alpha amino group of the N-terminal residue (Lys 1); disulfide bridge between the two Cys residues; C-terminal amide, analogue of human amylin; also called compound 39) [N^α1-[(4S)-4-carboxy-4-(19-carboxynonadecanoylamino)butanoyl]-[Arg17,Pro21,Pro27,Arg34]-h-amylin]

[47.7, 52, 35.9, 54.5]
